Molecular target: CSNK1G3 (human)
Assay: KINOMEscan competition binding
Details: compound 10.0 µM
recordedMetric: kinase still bound, per cent of control (%)
The reply should contain only the number, in %.

Entry CN1CCN(c2ccc(C(=O)Nc3ncc4c(n3)N(C)c3ccccc3C(=O)N4C)cc2)CC1 : kinase still bound, per cent of control on CSNK1G3 (human) = 100

Result for O=C1NC(=O)/C(=C/c2c[nH]c(=O)c(-c3ccc(N4CCNCC4)nc3)c2)S1 , tested on CSNK1G3 (human), kinase still bound, per cent of control: 3.2

The compound COc1cc(N2CCN(C)CC2)ccc1Nc1ncc2c(n1)N(C)c1ccccc1N(C)C2=O , when measured on CSNK1G3 (human), yielded kinase still bound, per cent of control of 98
